Assay details: yeast display, Sf9 membrane polyspecificity reagent, FACS + sequencing; frameworks hold sequencing errors
Experimental readout: polyreactivity (PSR sort gate)

Sequence data | polyreactivity (PSR sort gate)
QVQLVESGGGLVQAGGSLRLSCAASGNIFTYYVMGWYRQAPGKQRELVAAISRRGGSTYYADSVKGRFIISRDNAKHTVYLQMNSLKPEDTAVYYCAKKYPRDMDYWGQGTQVTVSS | high polyreactivity
QVQLVESGGGLVQAGGSLRLSSAASGSTIFLYDMGWYRQAPGKERELVAAITISGGSTYYADSVKGRFTISRDNAKNTVYLQMNSLKPEDTAVYYCAVRTYRFRHWPKYDYWGQGTQVTVSS | high polyreactivity
QVQLVESGGGLVQAGGSLRLSCAASGITIWNNAMGWSRQAPGKESELVATISSNGGRTYYADSVKGRFTISRDNAKNTVYLQMNSLKPEDTAVYYCNAARRAYGYNYWGQGTQVTVSS | low polyreactivity
QVQLVESGGGLVQAGGSLLLSCAASGYTFGTYDMGWYRQAPGKERELVAAISIGGSTNYADSVKGRFTISRDNAKNTVYLQMNSLKPEDTAVYYCAAEVNVGTLLLSVIVEDGDYWGQGTQVTVSS | low polyreactivity
QVQLVESGGGLVQAGGSLRLSCAASGRMFGPYTMGWYRQAPGKEREFVAAITRRGGSTYYADSVKGRFTFSRDNAKNTVYLQMNSLKPEDTAVYYCAAVGQNRSLGYSWGQGTQVTVSS | low polyreactivity
QVQLVESGGGLVQAGGSLRLSCAASGSIFHIYAMGWYRQAPGKERELVAAISSGGRTNYADSVKGRFTISRDNAKNTVYLQMNSLKPEDTEVYYCAADWIYLPTRNYRVRVDYWGQGTQVTVSS | high polyreactivity
QVQLVESGGGLVQAGGSLRLSCAASGRTFGWYAMGWYRQAPGKERELVAAITSGTSTYYADSVKGRFTISRDNAKNTVYLQMNSLKPEDTAVYYCAAQQGISNGTGVSATNPMDYWGQGTQVTVSS | low polyreactivity
QVQLVESGGGLVQAGGSLRLSCAASGSTFRYYDMGWYRQAPGKERELVAVISKSGARTYYADSVKGRFTISRDNAKNTVYLQMNSLKPEDTAVYYCIAVFKLDSQYAMGYWGQGTQLTVSS | high polyreactivity

I would be grateful if you could provide polyreactivity (PSR sort gate) for each of the following entries.
1. QVQLVESGGGLVQAGGSLRLTCAASGFTFWWYTMGWYRQATGKERELVATITSGGRTNYADSVKGRFTISRDNAKNTVYLQMNSLKPEDTAVYYCNRVAYYSRYDTDDYWGQGTQVTVSS
2. QVQLVESGGGLVQAGGSLRLSCAASGRTCGRYAMVLYRQAPGKERELVAAISYSGGSTYYADSVKGRFTISRDNAKNTVYLQMNSLKPEDTAVYYCARYSIFRWTRDEYWGQGTQVTVSS
3. QVQLVQSGGGLVQAGGSLRLSCAASGYTIYLKAMGWNRQAPGKERELVAAITGSGDDTYYADSVKGRFTISRDNAKNTVYLQMKIMIPEDTAVYYCAARPYYTSSYKDYEYWGQGTQVTVSS

Ans:
1: high polyreactivity; 2: high polyreactivity; 3: high polyreactivity

###

Assay details: yeast display, Sf9 membrane polyspecificity reagent, FACS + sequencing; frameworks hold sequencing errors
Experimental readout: polyreactivity (PSR sort gate)

The examples below pair each entry with its known result.
Sequence data | polyreactivity (PSR sort gate)
QVQLVESGGGLVQAGGSLRLSCAASGSTFATYAMVWYRQAPGKERELVAAITSGGSTYYADSVKGRFTISRDNAKNTVYLQMNSLKPEDTAVYYCAARSYGWRRATYYKREEYWGQGTQVTVSS | high polyreactivity
QVQLVESGGGLVQAGGSLRLSCAASGFTFGSNAMGWYRQAPGKERELVAAISSTGSTYYADSVKGRFTISRDNAKNTVYLQMNSLKPEDTAVYYCNADSDTPRYDYWGQGTQVTVSS | low polyreactivity
QVQLVESGGGLVQAGGSLRLSCAASGFTFDYYAMGWYRQAPGKERELVAAISKRGGSTYYADSVKGRFTISRDNAKNTVYLQMNSLKPEDTAVYYCAAASYSSPRTSSGNYWGQGTQVYVSS | high polyreactivity
QVQLVESGGGLVQAGGSLRLSCAASGSTLRRNAMGWYRQAPGKERELVAAISSGGSTYYADSVKGRFTISRDNAKNTVYLQMNSLKPEDTAVYYCNAAVPRGRYTSYYRSGWLDYWGQGTQVTVSS | high polyreactivity
QVQLVESGGGLVQAGGSLRLSCAASGITFQYYAMGWYRQAPGKERELVAAISGGGSTNYADSVKGRFTISRDNAKNTVYLQMNSLKPEDTAVYYCAAADLNLELDYWGQGTQVTVSS | high polyreactivity

I would be grateful if you could provide polyreactivity (PSR sort gate) for each of the following entries.
1. QVQLVESGGRLVQAGGSLRLSCAASGYIFDWNAMGWYRQAPGKERELVAAISSGGRTNYADSVKGRFTISRDNAKITVYLQMNSLKPEDTAVYYCAAVYTDPYVEYDYWGQGTQVTVSS
2. QVQLQESGGGLVQAGGSLRLSCAATGSIYHLHIMCWYRKAPGKERESVAAISYGTSTYYADSVKGRFTICRDNAKNTVYLQMNSPKPDDTAVYYCAALFLVYKHHHYWGEGTQVTVSS
3. QVQHVESGGGLVQAGGSLRLSCAASGYTFGGNAMGWYRQAPGKERELVAAISSGGSTNYADSVKGRFTISRDNAKNTVYLQMNSLKPEDTAVYYCNKRGYYYWSGQDVASYDYWGQGTQLTVSS
4. QVQLVESGGGLVHAGGSLRLSCAASGYTFPLYAMGWYRQAPGKERELVADINIGGASTYYADSVKGRFTISRDNAKNTVYLQMNSLKPEDTAVYYCAKEYYDGYFPTFDYDYWGQGTQVTVSS
5. QVQLVESGGGLVQAGGSLRLSCAASGSIFLKYAMGWYRQAPGKERELVAAISRGGDTNYADSVKGRFTISRDNAKNTVYLQMNSLKPEDTAVYYCAARPGLYFTRRGRYYWGQGTQVTVSS
6. QVQLVETGGGLVQAGGSRRLICAATGRIFYWYAMGCYRQAPGKERELVATISSAGTTYYADSVKGRFTISRDNAKNTVYLQMNSLKQEDTAVYYCAVPRVGLHGIGSDYWGQGTQVTVSS

Ans:
1: low polyreactivity; 2: low polyreactivity; 3: low polyreactivity; 4: low polyreactivity; 5: high polyreactivity; 6: high polyreactivity

###

Assay details: yeast display, Sf9 membrane polyspecificity reagent, FACS + sequencing; frameworks hold sequencing errors
Experimental readout: polyreactivity (PSR sort gate)

The examples below pair each entry with its known result.
Sequence data | polyreactivity (PSR sort gate)
QVQLVESGGGLVQAGGSLRLSCAASGRTFTYNTMGWYRQAPGKERELVAAISSSGGSTYYADSVKGRFTISRDNAKNSVYLQMNSLKPEDTAVYYCAKRYFSSSRYYYWGQGTQVTVSS | high polyreactivity
QVQLVESGGGLVQAGGSLRLSCAASGIIFYQNTMGWYRQAPGKERELVATITKRGGSTYYADSVKGRFTISRDNAKNTVYLQMNSLKPEDTAVYYCNAAKYAASYIGYGYWGQGTQVTVSS | high polyreactivity
QVQLVESGGGLVQAGGSLRLSCAASGGIFLYNSMGWYRQAPGKERELVADISSSGITYYADSVKGRFTISRDNAKNTVYLQMNSLNPEDTAVYYCAADSTTRPGLRVYDDYDYWGQGTQVTVSS | low polyreactivity
QVQLVESCGGLVQAGGSLRLSCAASGRNIWDYGMVWYRQAPGKERELVAVITWGGGSTYYADSVKGRFTISRDNAMNTVYLQMNSLKPEDSAVYYCAKEYHYYYWGQGTQVTVSS | low polyreactivity
QVQLVESGGGLVQAGGSLRLSCAASGSTFYFNAMGWYRQAPGKERELVAGIRYSGSSTYYADSVKGRFTISRDNAKNTVYLQMNSLKPVDTAVYYCAASLWRWRFSGFGYWGQGTQVTVSS | high polyreactivity

I would be grateful if you could provide polyreactivity (PSR sort gate) for each of the following entries.
1. QVQLVESGGGLVQAGGSLRLSCAASGSTFVSNAMGWYRQAPGKERELVAAISTSGGSTYYADSVKGRFTISRDNAKNTVYLQMNSLKPEDTAVYYCAKLLARGFRIWQDYDYWGQGTEVTVSS
2. QVQLVESAGGLVQEGGRLRLSCAASGITLGAYAMGRYRQAPGKEREMVARIRIGGSKYYADSVKGRFTISRDNEKNTVYLQMNSLKPEDTAVYYCATRWQEYAGDYWGDYWGQGTHVTVSS
3. QVQLVESGGGLVQAGGSLRLSCAASGRIFTINAMGWYRQAPGKERELVATISDRGGSTYYADTVKGRFTISRDNAKNTVYLQMNSLKPEDTAVYYCAARWGRGLEFDYWGQGTQVTVSS
4. QVQLVESGGGLVQAGGSLRLSCAASGRTFQRNAMGWYIQAPGKERELVATITTNGGSTYYADSVKGRFTISRDNAKNTVYLQMNSLKPEDTAVYYCAAPFNPRVRTLRSVRMDYWGQGTQVTVSS

Ans:
1. low polyreactivity
2. low polyreactivity
3. high polyreactivity
4. low polyreactivity

I would be grateful if you could provide polyreactivity (PSR sort gate) for each of the following entries.
1. QVQLVESGGGLVQAGCSLRLSSPASGRIFWANVMGWYRQAPGKERELVAAISYSGTGTYYADSVKGRFTISPDYAKNTVYLQMNSLKPEDTAFYYFAKAPYIYYWGQGTHVTVSS
2. QVQLVESGPGLFQAGGSLRLSCAASGNIFGYNVMAWYRQAPGKERELVAAITWSAGTTNYADSLKGRFTISRDNAKNTVYLQRNSLKPEDTAVYYFAVTWWYQDYDLTCYLYDYWGQGTEVTVSS

Ans:
1. high polyreactivity
2. low polyreactivity
